# ASSAY NOTES: clinical
# CONDITIONS: human, in vivo, iv
Quick rule for you: MRT under 2 h gets yes, anything else gets no.

Some solved cases for reference:
Nc1nc(=O)[nH]cc1F	no
C[C@]12CC[C@@H]3c4ccc(O)cc4CC[C@H]3[C@@H]1CC[C@@H]2O	yes
COc1ccc(Cc2nccc3cc(OC)c(OC)cc23)cc1OC	yes
CC(=O)N[C@H]1[C@H]([C@H](O)[C@H](O)CO)OC(C(=O)O)=C[C@@H]1N=C(N)N	no
CC[C@]1(O)C[C@@H]2CN(CCc3c([nH]c4ccccc34)[C@@](C(=O)OC)(c3cc4c(cc3OC)N(C)[C@H]3[C@@](O)(C(=O)OC)[C@H](OC(C)=O)[C@]5(CC)C=CCN6CC[C@]43[C@@H]65)C2)C1	no
Cc1cnc(NCCCN(C)C)c2c1[nH]c1ccc3cc(O)ccc3c12	no
C=CC[C@@H]1/C=C(\C)C[C@H](C)C[C@H](OC)[C@H]2O[C@@](O)(C(=O)C(=O)N3CCCC[C@H]3C(=O)O[C@H](/C(C)=C/[C@@H]3CC[C@@H](O)[C@H](OC)C3)[C@H](C)[C@@H](O)CC1=O)[C@H](C)C[C@@H]2OC [TACROLIMUS ANHYDROUS]	no
CCOc1cc(CC(=O)N[C@@H](CC(C)C)c2ccccc2N2CCCCC2)ccc1C(=O)O [REPAGLINIDE]	yes
CC(=O)Nc1c(I)c(C(=O)O)c(I)c(N(C)C(C)=O)c1I	yes
COc1cc(NS(C)(=O)=O)ccc1Nc1c2ccccc2nc2ccccc12	no

Please indicate whether the reported MRT of COC(=O)C1=C(C)NC(C)=C(C(=O)OCC(C)C)C1c1ccccc1[N+](=O)[O-] (stereo unspecified) is strictly below 2 h.
no

Strictly below 2 h in MRT? CO[C@@]1(NC(=O)CSCC#N)C(=O)N2C(C(=O)O)=C(CSc3nnnn3C)CS[C@@H]21
yes

Please check: MRT for CCN1C[C@H]2CN(C)C[C@H](C1)C2OC(=O)c1ccc(Cl)cc1 (stereo partly specified) , strictly under 2 h or not?
no

Strictly below 2 h in MRT? CO/N=C(\C(=O)N[C@@H]1C(=O)N2C(C(=O)O)=C(COC(N)=O)CS[C@H]12)c1ccco1
yes
